# ASSAY TEXT: In vivo pharmacokinetic evaluation
# CONDITION DETAILS: blood; 2 mg/kg (iv)
READOUT LABEL: Tmax (min)
Please respond with the number in min and leave the unit unwritten.

Enquiry: What value of measured Tmax is listed for `NC(=O)c1cccc(-c2cnc3[nH]cc(-c4ccoc4)c3c2)c1` ?
Return: 19.8

----------
# Tested on: A549
# ASSAY TEXT: Antiproliferative CCK-8 assay, A549
# Format: cell-based
# CONDITION DETAILS: Homo sapiens; A549, CCK-8 assay, means ± SD; read-out: GC50 (the source's name)
READOUT LABEL: IC50 (µM)
Please state the figure in µM; there is no need to write the unit.

- MOLECULE: "NC(=O)c1cccc(-c2cnc3[nH]cc(-c4ccsc4)c3c2)c1 [Compound 13]"
  IC50 (µM): 21.8

Enquiry: If you can, please state the reported IC50 value of Cc1c(Br)c(Br)c2c3c1nc(N1CCNCC1)n3CCC2 [SEL-120-34A, reference compound] .
Return: 12.1

Enquiry: # lookup: IC50 of NC(=O)c1cccc(-c2cnc3[nH]cc(-c4ccoc4)c3c2)c1 [Compound 12]
Return: 15.5
